Test: Solubility in different solution systems
Format: physicochemical
Conditions: 50% Methanol-0.1% TFA
Ends that are not written are not given here. * marks the point of attachment. Palmitoyl = CCCCCCCCCCCCCCCC(=O)*
measuredProperty: solubility (µg/mL)
Numeric only. Scale: µg/mL

Lookup result for K(Palmitoyl)SSQYIKANSKFIGITEAAAFLPSDFFPSVGGGDPRVRGLYFPA-OH [SEQ ID NO:1] ; measured solubility: 1540

---

Experiment: Size shrinkage of liposome after lyophilization
Assay type: physicochemical
Conditions: 5% mannitol/10 mmol/L phosphate buffer
Ends that are not written are not given here.
measuredProperty: degree of size shrinkage of the liposome after lyophilization

10 (SILSKTGDPV; Hepatitis B virus) [compound 10]	+
3 (KSSQYIKANSKFIGITEGGGDPRVRGLYFPA; not fully specified (N-terminus); printed as CH3CH2CH═CHCH2CH═CH(CH2)7CO7KSSQYIKANSKFIGITEGGGDPRVRGLYFPA; also: N-terminal acyl on K unclear: CH3(CH2)7CH=CH(CH2)-CO or CH3CH2CH=CHCH2CH=CH(CH2)7CO) [compound 3]	+++
9 (MQWNSTALHQALQDP; Hepatitis B virus) [compound 9]	+

---

Assay: Solubility in different solution systems
Type: physicochemical
Conditions: 2% Tween80-0.1 mol/L PB(pH 6.8)
Ends that are not written are not given here. * marks the point of attachment. Palmitoyl = CCCCCCCCCCCCCCCC(=O)*
measuredProperty: solubility (mg/mL)
Numeric only. Scale: mg/mL

Lookup result for K(Palmitoyl)SSQYIKANSKFIGITEAAAFLPSDFFPSVGGGDPRVRGLYFPA-OH [SEQ ID NO:1] ; measured solubility: 0.08

---

Assay: Solubility in different solution systems
Type: physicochemical
Details: 0.1 mol/L PB (pH 6.8)
Ends that are not written are not given here. * marks the point of attachment. Palmitoyl = CCCCCCCCCCCCCCCC(=O)*
measuredProperty: solubility (µg/mL)
Numeric only. Scale: µg/mL

Lookup result for K(Palmitoyl)SSQYIKANSKFIGITEAAAFLPSDFFPSVGGGDPRVRGLYFPA-OH [SEQ ID NO:1] ; measured solubility: 10

---

Assay: Solubility in different solution systems
Format: physicochemical
Conditions: DMSO
Ends that are not written are not given here. * marks the point of attachment. Palmitoyl = CCCCCCCCCCCCCCCC(=O)*
measuredProperty: solubility (mg/mL)
Numeric only. Scale: mg/mL

Lookup result for K(Palmitoyl)SSQYIKANSKFIGITEAAAFLPSDFFPSVGGGDPRVRGLYFPA-OH [SEQ ID NO:1] ; measured solubility: 11.7

Values compiled from patent US8591908B2.
